Recorded measurements of TGI, one per entry
system: MCF7 breast; assay: NCI tumour cell line growth inhibition, 48 h

1. NC1c2c(Br)sc(N3CCCC3)c2C(=O)C1O (stereo unspecified) : > 50 µM
2. Clc1cccc(Cc2cn3cc(-c4ccccc4)nc3s2)c1Cl : > 100 µM
3. N#Cc1cccc2c1Sc1ccccc1N2 : > 100 µM
4. Nc1cc2nc3ccccc3sc-2cc1=O : 9.63 µM

Briefly, TGI measured for O=c1cc(-c2cccc(O)c2)[nH]c2cc3c(cc12)OCO3 : > 100 µM

Briefly, TGI measured for O=C1NC(N/N=C/c2ccccc2)=N/C1=C\c1ccco1 : > 100 µM

Briefly, TGI measured for Cc1nnc2n1N=C(c1ccccc1)/C(=C/c1ccc(-c3ccc(Cl)cc3)o1)S2 : > 100 µM

Briefly, TGI measured for CC1=C(C(=O)OCCO[N+](=O)[O-])C(c2cccc([N+](=O)[O-])c2)C(C(=O)OC(C)C)=C(C)N1 (stereo unspecified) : 86.3 µM

Briefly, TGI measured for O=C(O)c1cc(C(=O)O)cc(N2C(=O)c3ccccc3C2=O)c1 : > 100 µM

Briefly, TGI measured for C=CCC1(O)CC(n2cc(C)c(=O)[nH]c2=O)OC1CO[Si](C)(C)C(C)(C)C (stereo unspecified) : > 100 µM

Briefly, TGI measured for C=C(C)[C@@H]1CCC2=C[C@@H](OC2=O)[C@@H](C(=C)C)C2=CC(C(=O)O)=C(C1)O2 : > 100 µM

* * *

Recorded measurements of TGI, one per entry
tested on: U251 CNS; assay: NCI tumour cell line growth inhibition, 48 h

Below: 3 molecules and their reported TGI.
1) COc1ccc(NC(=O)c2cc(OC)cc(OC)c2)cc1 : > 61.3 µM
2) NC(=O)c1ccc(C(=O)Nc2ccc([As](=O)(O)O)cc2)cc1 : > 100 µM
3) CC(=O)Nc1oc(C)c(C)c1S(=O)(=O)c1ccc(Cl)cc1 : > 100 µM

Briefly, TGI measured for CN(C)c1ccc(-c2cc(-c3ccc(Nc4nc(Nc5ccc(Cl)cc5)nc(Nc5ccc(Cl)cc5)n4)cc3)no2)cc1 : 61.8 µM

Briefly, TGI measured for COc1cc2c(cc1OC)[C@@H]1[C@H](C#N)C(=O)C(C)(C)N1CC2 : > 100 µM

* * *

system: CCRF-CEM leukemia; test: NCI tumour cell line growth inhibition, 48 h
Where a SMILES comes first, the peptide text is derived from it. [ ]: non-standard residue; d: D form. The star is where a group is joined. Boc = CC(C)(C)OC(=O)*; Lac = C[CH](O)C(=O)O; OBn = c1ccc(CO*)cc1
ENDPOINT: TGI

Below: 5 molecules and their reported TGI.
1. O=C(N/C(=C\c1cc(Cl)ccc1Cl)c1nc2[nH]c(=S)[nH]c(=O)c2[nH]1)c1ccccc1 : 69.7 µM
2. O=c1c2cccnc2n2n1Cc1ccccc1C2 : > 100 µM
3. CN(CC(=O)O)S(=O)(=O)c1ccc2ccccc2c1 : > 100 µM
4. CC1=C(C(=O)Nc2ccccc2C)C(c2ccco2)C(C(=O)Nc2ccccc2C)=C(C)N1C : > 100 µM
5. CCOC(=O)c1c(SC(=O)c2ccc(C(C)(C)C)cc2)n(-c2ccccc2)c(=S)n(-c2ccccc2)c1=O : > 100 µM

Noted TGI for CS(=O)(=O)OCCCCOS(=O)(=O)CF , tested on CCRF-CEM leukemia: > 100 µM

Noted TGI for CN1CCc2cc3c(c4c2C1C(O)c1ccccc1-4)OCO3 (stereo not given) , tested on CCRF-CEM leukemia: 9.69 µM

Noted TGI for NC(N)=Nc1ccc(-c2ccc(N=C(N)N)cc2)cc1 , tested on CCRF-CEM leukemia: > 95.7 µM

Noted TGI for O=[S@@]1Nc2ccc(Br)cc2S1 , tested on CCRF-CEM leukemia: > 100 µM

Noted TGI for CC(OC(=O)C(Cc1ccccc1)NC(=O)C(Cc1ccccc1)NC(=O)OC(C)(C)C)C(=O)OCc1ccccc1 (stereo not drawn) (Boc-Phe-Phe-[Lac]-OBn; configuration not given here) , tested on CCRF-CEM leukemia: > 100 µM

Each recorded value in this set is attributed to PubChem BioAssay (NCI).
